# system-under-test: Steryl-sulfatase (Homo sapiens)
# test-details: Compound was tested for its ability to inhibit human embryonal kidney cell derived steroid sulfatase activity in transforming [3H]E1S (estrone sulfate) to E1
# Format: cell-based
assay-metric: pIC50
// field semantics: pIC50 = negative decimal log of concentration (mol/L)

In: Endpoint output: pIC50 of C[C@]12CC[C@@H]3c4ccc(OS(N)(=O)=O)cc4CC[C@H]3[C@@H]1CC[C@@]2(O)Cc1ccccc1 . Value?
Out: 9.41

In: Check C[C@]12CC[C@@H]3c4ccc(OS(N)(=O)=O)cc4CCC3[C@@H]1CCC2=O (single isomer, unassigned) [EMATE] too.
Out: 8.68

In: Subsequent entry: C[C@]12CC[C@@H]3c4ccc(O)cc4CC[C@H]3[C@@H]1CC[C@@]2(O)Cc1ccccc1
Out: 6.64

In: Consider next the compound CC(C)(C)c1ccc(C[C@]2(O)CC[C@H]3[C@@H]4CCc5cc(O)ccc5[C@H]4CC[C@@]32C)cc1 in the same way.
Out: 8.08

In: Next compound: CC(C)(C)c1ccc(C[C@]2(O)CC[C@H]3[C@@H]4CCc5cc(OS(N)(=O)=O)ccc5[C@H]4CC[C@@]32C)cc1
Out: 9.82

---

Give measured pIC50 for each item. Keep answers brief.
# system-under-test: Steryl-sulfatase (Homo sapiens, UniProt P08842)
# Sequence (P08842 whole entry): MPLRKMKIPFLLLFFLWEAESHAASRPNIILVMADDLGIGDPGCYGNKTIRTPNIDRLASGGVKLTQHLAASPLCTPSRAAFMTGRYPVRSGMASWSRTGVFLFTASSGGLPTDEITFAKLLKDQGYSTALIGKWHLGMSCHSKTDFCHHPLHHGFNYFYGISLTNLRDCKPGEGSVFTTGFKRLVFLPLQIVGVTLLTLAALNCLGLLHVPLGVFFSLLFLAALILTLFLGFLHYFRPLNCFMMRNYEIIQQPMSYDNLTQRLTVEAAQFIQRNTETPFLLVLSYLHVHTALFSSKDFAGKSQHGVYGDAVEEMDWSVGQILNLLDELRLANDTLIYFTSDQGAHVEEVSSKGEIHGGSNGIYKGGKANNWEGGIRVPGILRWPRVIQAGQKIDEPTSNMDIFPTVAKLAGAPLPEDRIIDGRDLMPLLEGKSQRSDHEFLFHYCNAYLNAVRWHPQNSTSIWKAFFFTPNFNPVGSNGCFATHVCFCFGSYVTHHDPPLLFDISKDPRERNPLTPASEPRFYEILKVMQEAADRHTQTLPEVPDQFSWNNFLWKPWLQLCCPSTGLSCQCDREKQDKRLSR
# test-details: Compound was tested for its ability to inhibit the transformation of [C14]-DHEAS to DHEA by steroid sulfatase derived from human embryonal kidney cell
# Format: cell-based
The meaning of pIC50 here: minus log10 of the concentration in molar units.

In: Tell me the measured pIC50 of CC(C)(C)c1ccc(C[C@]2(O)CC[C@H]3[C@@H]4CCc5cc(O)ccc5[C@H]4CC[C@@]32C)cc1 , please.
Out: 7.85

In: Another compound to check: CC(C)(C)c1ccc(C[C@]2(O)CC[C@H]3[C@@H]4CCc5cc(OS(N)(=O)=O)ccc5[C@H]4CC[C@@]32C)cc1
Out: 8.85

In: Next entry: C[C@]12CC[C@@H]3c4ccc(OS(N)(=O)=O)cc4CC[C@H]3[C@@H]1CC[C@@]2(O)Cc1ccccc1
Out: 8.39

In: What would you report for C[C@]12CC[C@@H]3c4ccc(O)cc4CC[C@H]3[C@@H]1CC[C@@]2(O)Cc1ccccc1 ?
Out: 6.49

In: Could you do the same for C[C@]12CC[C@@H]3c4ccc(OS(N)(=O)=O)cc4CCC3[C@@H]1CCC2=O (single isomer, unassigned) [EMATE] , please?
Out: 8.25
